Tested on: gene editing with dCas9
Test: Screen of 322 new SSAP proteins, gene editing activity with dCas9 (Table 5)
Format: cell-based
Settings: normalized
experimentalReadout: dCas9 with SSAP activity (normalized)
Number only, no unit.

## Input # lookup: dCas9 with SSAP activity (normalized) of SSAP_258: SEQ ID NO: 427; Clostridium thermopalmarium (protein, listed as Clostridium thermopalmarium) ATVNELKNEIATKKETGVGSAGNTIKGLINSPAIKKRFEDVLNKKAPQYMSSIVNLVNGDTNLKKCDQMSVIASCMVAATLDLPIDKNLGYAWIVPYGNRAQFQLGYKGYVQLALRTGQYKAINVIEVHEGELIEWNPLTEELKIDFSQKKSDAIIGYAGYFELLNGFKKSTYWTKEQIIRHKNKFSKSDFGWKKDFDAMAKKTVLRNMLSKWGILSIEMQNAYTADQATIRPEAVETGDIKGNVDYVEADFEENYEGTPFEEVEEGGVNE
## Output −0.956
